// reported TGI for each item listed
system: SNB-19 CNS; test: NCI tumour cell line growth inhibition, 48 h

Consider the worked cases shown below.
[[record]]
compound = "COC(=O)C1=C(C)NC(=O)N2[C@@H](CCOCc3ccccc3)CC[C@@H]12"
test_result = "> 50 µM"

[[record]]
compound = "OC1CC2CCC(C1)N2CCCN1c2ccccc2Sc2ccc(Cl)cc21 (centres undefined)"
test_result = "13.5 µM"

[[record]]
compound = "c1ccc2c3c(ccc2c1)-c1[nH]ncc1CCO3"
test_result = "> 100 µM"

[[record]]
compound = "COc1ccc2[nH]cc(CCNC(=O)[C@H](Cc3ccc(O)cc3)NC(=O)[C@@H](NCC(F)(F)F)C(C)C)c2c1"
test_result = "> 100 µM"

[[record]]
compound = "CSc1ccc(C2=NN(C(C)=O)C(c3ccc(-c4cc(Cl)c(Cl)cc4Cl)o3)C2)cc1 (centres undefined)"
test_result = "32.3 µM"


Which TGI is reported for this compound? COC1OC2COC1(OCc1ccccc1)C1OC(C)(C)OC21 (centres undefined)
> 100 µM

I have this compound here, `C=C(C)[C@@H]1CC[C@]2(CO)CC[C@]3(C)[C@H](CC[C@@H]4[C@@]5(C)CCCNC(C)(C)[C@@H]5CC[C@]43C)[C@@H]12` , and I need its recorded TGI.
3.2 µM

Consider the compound shown here: CC(Oc1ccc2c(-c3ccc(Cl)cc3)cc(=O)oc2c1)C(=O)O (centres undefined) What is its recorded TGI?
> 100 µM

Name the reported TGI value associated with the compound CCOC(=O)CNC(=O)C(CCC(=O)N(C)O)NC(=O)CCC(N)C(=O)O (centres undefined)
> 100 µM
